assay: clinical; settings: human, in vivo, po
MEASURED QUANTITY: Tmax (min)
Answers are plain numbers, in min.

I'd like to know its Tmax. The compound in question is CC(C)OC(=O)[C@H](C)N[P@](=O)(CO[C@H](C)Cn1cnc2c(N)ncnc21)Oc1ccccc1 [TAF, tenofovir alafenamide]
30

---

experiment: clinical; settings: human, plasma, oral
MEASURED QUANTITY: AUC(0-inf) (ng·h/mL)
Give bare numbers, in ng·h/mL.

May I ask what AUC(0-inf) has been recorded for CC(C)c1nc(CN(C)C(=O)N[C@@H](CCN2CCOCC2)C(=O)N[C@H](CC[C@H](Cc2ccccc2)NC(=O)OCc2cncs2)Cc2ccccc2)cs1 [COBI, cobicistat] ?
6870
